meta.source: paper PMC11419141

Here the recorded log10 Cytotoxicity concentration is given for each entry.
tested on: TZM-bl cells; experiment: Cytotoxicity to cells in the anti-HIV assay; assay type: cell-based; settings: toxic to cells in anti-HIV assay
Annotation: log10 of Cytotoxicity concentration, µM basis.

{"compound": "O=c1c(O)c(-c2ccc(O)cc2)oc2cc(O)cc(O)c12 [Kaempferol]", "systemTested": "TZM-bl cells", "val": 1.04}
{"compound": "O=C(O)c1cc(O)c(O)c(O)c1 [Gallic acid]", "systemTested": "TZM-bl cells", "val": 1.91}
{"compound": "O=c1cc(-c2ccc(O)c(O)c2)oc2cc(O)cc(O)c12 [Luteolin]", "systemTested": "TZM-bl cells", "val": 0.63}
{"compound": "COc1cc(-c2oc3cc(O)cc(O)c3c(=O)c2O)ccc1O [Isorhamnetin]", "systemTested": "TZM-bl cells", "val": 0.48}

Next compound, log10 Cytotoxicity concentration to be filled in.
The reported log10 Cytotoxicity concentration of the compound O=c1c(O)c(-c2ccc(O)c(O)c2)oc2cc(O)cc(O)c12 [Quercetin] was 1.42
